target: Large T antigen (Simian virus 40) (UniProt P03070); assay: SV40 large T antigen inhibitors, biochemical (AID 1903); details: SV40 large T antigen ATPase/helicase inhibition assay; at 20 µM; active compounds read high
Sequence (P03070 whole entry, looked up): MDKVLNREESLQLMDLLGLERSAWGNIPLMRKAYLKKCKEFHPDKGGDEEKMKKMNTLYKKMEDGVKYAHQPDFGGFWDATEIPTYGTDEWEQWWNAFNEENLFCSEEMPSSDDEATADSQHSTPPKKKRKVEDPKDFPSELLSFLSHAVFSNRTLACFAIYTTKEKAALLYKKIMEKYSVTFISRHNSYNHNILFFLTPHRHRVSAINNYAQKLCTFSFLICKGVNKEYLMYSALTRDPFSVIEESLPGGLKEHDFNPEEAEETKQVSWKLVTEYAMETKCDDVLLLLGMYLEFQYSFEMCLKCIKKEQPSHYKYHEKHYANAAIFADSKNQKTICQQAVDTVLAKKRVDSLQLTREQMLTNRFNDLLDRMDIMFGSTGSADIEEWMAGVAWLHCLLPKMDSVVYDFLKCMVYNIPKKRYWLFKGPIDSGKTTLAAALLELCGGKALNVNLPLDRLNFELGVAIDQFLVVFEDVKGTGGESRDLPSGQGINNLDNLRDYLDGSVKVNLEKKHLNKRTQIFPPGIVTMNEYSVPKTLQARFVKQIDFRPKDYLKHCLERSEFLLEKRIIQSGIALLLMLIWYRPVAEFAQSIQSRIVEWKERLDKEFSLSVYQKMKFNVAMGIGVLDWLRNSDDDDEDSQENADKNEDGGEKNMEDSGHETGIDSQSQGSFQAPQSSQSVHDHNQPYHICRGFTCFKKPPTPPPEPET
In all, about 310,000 compounds went through this assay and about 1,200 (0.39%) were called active. Not all results are given here. Measured potencies and affinities stand elsewhere.
Answer N if inhibition is under 3%, and Y if it is 3% or more.

These solved cases illustrate the format of a correct answer.
1. COc1cc(/C=C/c2ccc3cccc(O)c3n2)c(Br)cc1O ... N
2. O=C(COC(=O)c1ccc2c(c1)OCCO2)Nc1cc(S(=O)(=O)N2CCOCC2)ccc1Cl ... Y
3. COc1ccc(-c2c(C#N)c(N)n(N)c(=O)c2C#N)cc1Cl ... Y
4. Cc1cccc(N(CC(=O)NCc2ccc3c(c2)OCO3)C(=O)CCC(=O)Nc2ccccn2)c1 ... Y
5. COc1ccc(/C=N/NC(=O)c2ccncc2)cc1CN1CCOCC1 ... Y

Hi team, for "O=C1NC(=O)/C(=C\c2ccsc2)N1" , is the recorded inhibition at or above 3%?
N

Reported inhibition reaches at least 3% for CCOC(=O)CN1C(=O)SC(CC(=O)Nc2nccs2)C1=O (stereo unspecified) ?
N

---

molecular target: Large T antigen (Simian virus 40); test: SV40 large T antigen inhibitors, biochemical (AID 1903); conditions: SV40 large T antigen ATPase/helicase inhibition assay; at 20 µM; active compounds read high
Among all 310,000 compounds or so, about 1,200 (0.39%) were called active. A selection follows. Entries with a potency or affinity are not part of this list.
Provide the reported inhibition of each item.

Recorded results for 4 compounds are shown here.
1) CCN1C(=O)/C(=C/c2ccc(C)s2)NC1=S ... 11.9% (inactive)
2) COc1ccccc1-c1ocnc1C(=O)N1CCN(S(=O)(=O)c2ccc(NC(C)=O)cc2)CC1 ... 4.74% (inactive)
3) O=C(O)CN1C(=O)/C(=C/c2ccc(SCc3ccccc3)o2)SC1=S ... 12.4% (inactive)
4) FC(F)(F)Oc1ccc(Nc2nc3ccccc3o2)cc1 ... 17% (inactive)

Please state, for each entry, its recorded inhibition.
1. COc1cc(C(=O)N/N=C(\C)c2ccc(NC(=O)Cc3ccccc3)cc2)ccc1O
2. Nc1ncnc2c1ncn2CCOc1ccccc1
3. CCOc1ccccc1C(=O)NCC(=O)N(C)Cc1cccnc1
4. O=C(Cc1n[nH]c(=O)[nH]c1=O)N/N=C/c1cccc(O)c1
5. CCCCc1c(O)nc(SCC(=O)NC(C)(C)C)n(-c2ccccc2C)c1=O

1. 37.2% (inactive)
2. 3.18% (inactive)
3. 0.45% (inactive)
4. 9.95% (inactive)
5. 0.223% (inactive)

For each of the compounds below, state inhibition.
1. O=C(NCCOCCNC(=O)OCc1ccccc1)OCc1ccccc1
2. CCCN1C(=O)/C(=C/c2ccc(C)s2)NC1=S
3. COc1ccc(C=C(C(C)=O)C(C)=O)cc1OC
4. O=C(O)c1c(-c2ccccc2)oc2ccc(O)cc12
5. N#CC(C#N)=C1C=CC=CN1/C(=C\c1ccco1)C(=O)c1ccc(-c2ccccc2)cc1
6. CCOC(=O)c1[nH]c2ccccc2c1NC(=O)CC(C)(C)C
7. CCN1CC2([N+](=O)[O-])CC=C(OC)C([N+](=O)[O-])(C1)C2 (centres undefined)

24.2% (inactive)
8.4% (inactive)
16.2% (inactive)
15% (inactive)
28.2% (inactive)
-0.46% (inactive)
-0.47% (inactive)

I'm hoping you can list inhibition for every compound here, please.
1. Cc1ccc(C(c2c(C)[nH][nH]c2=O)c2c(C)[nH][nH]c2=O)cc1[N+](=O)[O-]
2. CCCCNC(=O)OCCNC(=O)NC
3. COc1ccccc1/C=N/N1C(=O)C2C3C=CC(CC3)C2C1=O (centres undefined)

1: 20.9% (inactive); 2: 7.67% (inactive); 3: 5.91% (inactive)
